We begin with a simple list: items and their reported IC50.
Biological target: KRas^G12D (Homo sapiens, UniProt P01116, G12D)
Construct: Biotinylated KRas (corresponding to amino acids 1-169, produced at Accelegan Inc.); biotin (biotinylated); purchased Accelegan Inc
Sequence (P01116 1-169 isoform P01116-2 G12D): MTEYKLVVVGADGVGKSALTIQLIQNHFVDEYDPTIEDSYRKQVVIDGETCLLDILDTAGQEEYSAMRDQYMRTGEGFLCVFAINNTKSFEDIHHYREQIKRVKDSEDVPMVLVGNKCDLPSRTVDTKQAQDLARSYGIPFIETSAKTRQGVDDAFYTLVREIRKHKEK
Assay: KRas TR-FRET tracer displacement binding assay, G12D
Conditions: 60-minute incubation
PROPERTY MEASURED: IC50 (nM)

In [3]: df
Out[3]:
                                   compound  reading_qualifier  quantitative_readout
0  N#Cc1c(N)sc2c(F)ccc(-c3c(Cl)cc4c(N5CCC5CO)nc(OC[C@@]56CCCN5C[C@H](F)C6)nc4c3F)c12 (stereo partly drawn) [Example 209]                  =                     7
1  CN(C)C(=O)c1cc2n(n1)CCCN(c1nc(OC[C@@]34CCCN3C[C@H](F)C4)nc3c(F)c(-c4ccc(F)c5sc(N)c(C#N)c45)c(F)cc13)C2 [Example 215]                  <                     2
2  C[C@@]1(O)CCCN(c2nc(OC[C@@]34CCCN3C[C@H](F)C4)nc3c(F)c(-c4ccc(F)c5sc(N)c(C#N)c45)c(F)cc23)C1 [Example 198]                  =                     9

* * *

System: KRas-mediated Phosphorylation of ERK in H727 cells
Experiment: Cisbio HTRF pERK assay, H727 cells
Type: cell-based
Conditions: Homo sapiens, NCI-H727, 3 h, 3 hrs compound, read-out: Inhibition (HTRF IC50 nM) of KRas-mediated Phosphorylation of ERK, H727
We begin with a simple list: items and their reported IC50.
PROPERTY MEASURED: IC50 (nM)

>>> df
                               entry_smiles                               test_target  property_measured  unit_symbol  quantitative_readout
0  N#Cc1c(N)sc2c(F)ccc(-c3c(Cl)cc4c(N5CCCCC(=O)C5)nc(OC[C@@]56CCCN5C[C@H](F)C6)nc4c3F)c12  KRas-mediated Phosphorylation of ERK in H727 cells               IC50           nM                    12
1  N#Cc1c(N)sc2c(F)ccc(-c3c(Cl)cc4c(NCC5CS(=O)(=O)C5)nc(OC[C@@]56CCCN5C[C@H](F)C6)nc4c3F)c12  KRas-mediated Phosphorylation of ERK in H727 cells               IC50           nM                  1440
2  C[C@@]1(O)COCCN(c2nc(OC[C@@]34CCCN3C[C@H](F)C4)nc3c(F)c(-c4ccc(F)c5sc(N)c(C#N)c45)c(F)cc23)C1  KRas-mediated Phosphorylation of ERK in H727 cells               IC50           nM                   131
3  CN(c1nc(OC[C@@]23CCCN2C[C@H](F)C3)nc2c(F)c(-c3ccc(F)c4sc(N)c(C#N)c34)c(Cl)cc12)[C@H]1C[C@@H]1F  KRas-mediated Phosphorylation of ERK in H727 cells               IC50           nM                   104
4  N#Cc1c(N)sc2c(F)ccc(-c3c(Cl)cc4c(N5C=C(CCO)CCCC5)nc(OC[C@@]56CCCN5C[C@H](F)C6)nc4c3F)c12  KRas-mediated Phosphorylation of ERK in H727 cells               IC50           nM                   870
5  N#Cc1c(N)sc2c(F)ccc(-c3c(C4CC4)cc4c(N5C[C@H]6CC[C@@H](C5)N6)nc(OC[C@@]56CCCN5C[C@H](F)C6)nc4c3F)c12  KRas-mediated Phosphorylation of ERK in H727 cells               IC50           nM                  3280
6  N#Cc1c(N)sc2c(F)ccc(-c3c(Cl)cc4c(NCCO)nc(OC[C@@]56CCCN5C[C@H](F)C6)nc4c3F)c12  KRas-mediated Phosphorylation of ERK in H727 cells               IC50           nM                   554

* * *

Target: KRas^G12D (Homo sapiens, UniProt P01116, G12D)
Construct: Biotinylated KRas (corresponding to amino acids 1-169, produced at Accelegan Inc.); biotin (biotinylated); purchased Accelegan Inc
Test: KRas TR-FRET tracer displacement binding assay, G12D
Conditions: 60-minute incubation

MOLECULE	READING QUALIFIER	IC50, nM
Cc1c(F)c(N)nc(-c2c(Cl)cc3c(NC(C)c4cccnc4N)nc(OC[C@@]45CCCN4C[C@H](F)C5)nc3c2F)c1C(F)(F)F (single isomer, unassigned; isomer 1) [Example 172]	=	34
CCc1c(F)ccc2cc(O)cc(-c3c(F)cc4c(NCc5c[nH]c6ncccc56)nc(OC[C@@]56CCCN5C[C@H](F)C6)nc4c3F)c12 [Example 174]	=	285
N#Cc1c(N)sc2c(F)ccc(-c3c(Cl)cc4c(N5CCCCC(F)C5)nc(OC[C@@]56CCCN5C[C@H](F)C6)nc4c3F)c12 (some centres unmarked) [Example 204]	=	3
N#Cc1c(N)sc2c(F)ccc(-c3c(Cl)cc4c(NCCS(N)(=O)=O)nc(OC[C@@]56CCCN5C[C@H](F)C6)nc4c3F)c12 [Example 201]	=	3
N#Cc1c(N)sc2c(F)ccc(-c3c(C4CC4)cc4c(N5C[C@H]6CC[C@@H](C5)N6)nc(OC[C@@]56CCCN5C[C@H](F)C6)nc4c3F)c12 [Example 208]	<	2
CC(Oc1nc(N(C)C)c2cc(F)c(-c3ccc(F)c4sc(N)c(C#N)c34)c(F)c2n1)C12CCCN1CCC2 (single isomer, unassigned; isomer 1) [Example 177]	=	107
CCc1c(F)ccc2cc(O)cc(-c3c(F)cc4c(N5CC(c6ccncc6)C5)nc(OC[C@@]56CCCN5C[C@H](F)C6)nc4c3F)c12 [Example 175]	=	313
CN(C)C(=O)c1cc2n(n1)CCCN(c1nc(OC[C@@]34CCCN3C[C@H](F)C4)nc3c(F)c(-c4ccc(F)c5sc(N)c(C#N)c45)c(C4CC4)cc13)C2 [Example 207]	=	2
Cc1c(F)c(N)nc(-c2c(Cl)cc3c(NC(C)c4cccnc4N)nc(OC[C@@]45CCCN4C[C@H](F)C5)nc3c2F)c1C(F)(F)F (single isomer, unassigned; isomer 2) [Example 173]	=	661
C=Cc1cc2c(N3CCCn4nc(C(=O)N(C)C)cc4C3)nc(OC[C@@]34CCCN3C[C@H](F)C4)nc2c(F)c1-c1ccc(F)c2sc(N)c(C#N)c12 [Example 176]	<	2
N#Cc1c(N)sc2c(F)ccc(-c3c(Cl)cc4c(N5CCCOC6CC65)nc(OC[C@@]56CCCN5C[C@H](F)C6)nc4c3F)c12 (single isomer, unassigned) [Example 213]	=	9

* * *

Molecular target: KRas^G12C (Homo sapiens, UniProt P01116, G12C)
Construct: Biotinylated KRas (corresponding to amino acids 1-169, produced at Accelegan Inc.); biotin (biotinylated); purchased Accelegan Inc
Sequence (P01116 1-169 isoform P01116-2 G12C): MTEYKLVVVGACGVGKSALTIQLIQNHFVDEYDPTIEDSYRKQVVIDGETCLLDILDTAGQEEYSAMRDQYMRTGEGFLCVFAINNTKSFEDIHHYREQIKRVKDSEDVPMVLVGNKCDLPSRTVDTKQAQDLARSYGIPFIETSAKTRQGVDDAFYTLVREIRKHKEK
Assay: KRas TR-FRET tracer displacement binding assay, G12C
Conditions: 60-minute incubation
PROPERTY MEASURED: IC50 (nM)

COMPOUND	TEST TARGET	READING QUALIFIER	QUANTITATIVE READOUT
Cc1c(F)c(N)nc(-c2c(Cl)cc3c(NC(C)c4cccnc4N)nc(OC[C@@]45CCCN4C[C@H](F)C5)nc3c2F)c1C(F)(F)F (single isomer, unassigned; isomer 1) [Example 172]	KRas^G12C (Homo sapiens, UniProt P01116, G12C)	<	2
N#Cc1c(N)sc2c(F)ccc(-c3c(Cl)cc4c(N5CCCOC6CC65)nc(OC[C@@]56CCCN5C[C@H](F)C6)nc4c3F)c12 (single isomer, unassigned) [Example 213]	KRas^G12C (Homo sapiens, UniProt P01116, G12C)	=	8
C[C@@]1(O)COCCN(c2nc(OC[C@@]34CCCN3C[C@H](F)C4)nc3c(F)c(-c4ccc(F)c5sc(N)c(C#N)c45)c(F)cc23)C1	KRas^G12C (Homo sapiens, UniProt P01116, G12C)	=	6
CN(C)C(=O)c1cc2n(n1)CCCN(c1nc(OC[C@@]34CCCN3C[C@H](F)C4)nc3c(F)c(-c4ccc(F)c5sc(N)c(C#N)c45)c(F)cc13)C2	KRas^G12C (Homo sapiens, UniProt P01116, G12C)	=	4
N#Cc1c(N)sc2c(F)ccc(-c3c(Cl)cc4c(N5CCCOCC5)nc(OC[C@@]56CCCN5C[C@H](F)C6)nc4c3F)c12	KRas^G12C (Homo sapiens, UniProt P01116, G12C)	<	2
